Test system: Streptococcus pneumoniae
Test Protocol: Antimicrobial activity against constitutively erythromycin resistant Streptococcus pneumoniae PU27 expressing c-erm incubated in CAMHB medium for 20 to 24 hrs by two-fold microbroth dilution method
Assay type: functional
Below is a list of entries, each paired with its recorded MIC value.

For this compound ( `C=CCO/N=C1\[C@H](C)C[C@@](C)(OC)[C@H](O[C@@H]2O[C@H](C)C[C@H](N(C)C)[C@H]2O)[C@@H](C)[C@H](OCC#Cc2cncc(N)c2)[C@@H](C)C(=O)O[C@H](CC)[C@@]2(C)OC(=O)O[C@@H]2[C@H]1C` ), measured MIC is 128 µg/mL

For this compound ( `C=CCO/N=C1\[C@H](C)C[C@@](C)(OC)[C@H](O[C@@H]2O[C@H](C)C[C@H](N(C)C)[C@H]2O)[C@@H](C)[C@H](OCC#Cc2cccc(N)n2)[C@@H](C)C(=O)O[C@H](CC)[C@@]2(C)OC(=O)O[C@@H]2[C@H]1C` ), measured MIC is 64 µg/mL

###

Test system: Moraxella catarrhalis
Test Protocol: Ratio of MBC to MIC for erythromycin-susceptible Moraxella catarrhalis 13L332
Format: functional
Value Type: Ratio
// no unit string in output, number only

For this compound ( `CC[C@H]1OC(=O)[C@H](C)[C@@H](O[C@H]2C[C@@](C)(OC)[C@@H](O)[C@H](C)O2)[C@H](C)[C@@H](O[C@@H]2O[C@H](C)C[C@H](N(C)C)[C@H]2O)[C@](C)(OC)C[C@@H](C)C(=O)[C@H](C)[C@@H](O)[C@]1(C)O` ), measured Ratio is 4

For this compound ( `CC[C@H]1OC(=O)[C@H](C)[C@@H](OCC#Cc2ccc(NC(=O)c3ccccn3)nc2)[C@H](C)[C@@H](O[C@@H]2O[C@H](C)C[C@H](N(C)C)[C@H]2O)[C@](C)(OC)C[C@@H](C)/C(=N\OC)[C@H](C)[C@H]2OC(=O)O[C@@]21C` ), measured Ratio is 1

For this compound ( `CC[C@H]1OC(=O)[C@H](C)[C@@H](OCC#Cc2ccc(-c3ccccn3)s2)[C@H](C)[C@@H](O[C@@H]2O[C@H](C)C[C@H](N(C)C)[C@H]2O)[C@](C)(OC)C[C@@H](C)/C(=N\OC)[C@H](C)[C@H]2OC(=O)O[C@@]21C` ), measured Ratio is 2

For this compound ( `CC[C@H]1OC(=O)[C@H](C)[C@@H](OCC#Cc2cncc(NC(=O)c3ccccn3)c2)[C@H](C)[C@@H](O[C@@H]2O[C@H](C)C[C@H](N(C)C)[C@H]2O)[C@](C)(OC)C[C@@H](C)/C(=N\OC)[C@H](C)[C@H]2OC(=O)O[C@@]21C` ), measured Ratio is 2

###

Tested on: Streptococcus pneumoniae
Test Protocol: Bactericidal activity against mef-encoded erythromycin resistant Streptococcus pneumoniae PU09 assessed as reduction in colony formation incubated in CAMHB medium for 20 to 24 hrs followed by 24 hrs subculturing in the medium without test compound
Type: functional
Below is a list of entries, each paired with its recorded MBC value.
Write down the numeric answer in µg/mL and omit the unit.

Here is how some molecules turned out for MBC.
{"columns": ["Smiles Structure", "MBC [µg/mL]"],
 "data": [
  ["CC[C@H]1OC(=O)[C@H](C)[C@@H](OC(=O)CCNCCCc2cccnc2)[C@H](C)[C@@H](O[C@@H]2O[C@H](C)C[C@H](N(C)C)[C@H]2O)[C@](C)(OC)C[C@@H](C)/C(=N\\OC)[C@H](C)[C@H]2OC(=O)O[C@@]21C", 4],
  ["C#CCNCCC(=O)O[C@H]1[C@H](C)[C@@H](O[C@@H]2O[C@H](C)C[C@H](N(C)C)[C@H]2O)[C@](C)(OC)C[C@@H](C)/C(=N\\OC)[C@H](C)[C@H]2OC(=O)O[C@]2(C)[C@@H](CC)OC(=O)[C@@H]1C", 4],
  ["CC[C@H]1OC(=O)[C@H](C)[C@@H](OCC#Cc2ccc(NC(=O)c3ccccn3)nc2)[C@H](C)[C@@H](O[C@@H]2O[C@H](C)C[C@H](N(C)C)[C@H]2O)[C@](C)(OC)C[C@@H](C)/C(=N\\OC)[C@H](C)[C@H]2OC(=O)O[C@@]21C", 16],
  ["CC[C@H]1OC(=O)[C@H](C)[C@@H](OC(=O)CCNCC#Cc2cccnc2)[C@H](C)[C@@H](O[C@@H]2O[C@H](C)C[C@H](N(C)C)[C@H]2O)[C@](C)(OC)C[C@@H](C)/C(=N\\OC)[C@H](C)[C@H]2OC(=O)O[C@@]21C", 16],
  ["CC[C@H]1OC(=O)[C@H](C)[C@@H](OCC#Cc2ccc(C(=O)c3ccccc3)s2)[C@H](C)[C@@H](O[C@@H]2O[C@H](C)C[C@H](N(C)C)[C@H]2O)[C@](C)(OC)C[C@@H](C)/C(=N\\OC)[C@H](C)[C@H]2OC(=O)O[C@@]21C", 8]
]}

For this molecule ( `C=CCNCCC(=O)O[C@H]1[C@H](C)[C@@H](O[C@@H]2O[C@H](C)C[C@H](N(C)C)[C@H]2O)[C@](C)(OC)C[C@@H](C)/C(=N\OC)[C@H](C)[C@H]2OC(=O)O[C@]2(C)[C@@H](CC)OC(=O)[C@@H]1C` ), measured MBC is 8

For this molecule ( `CC[C@H]1OC(=O)[C@H](C)[C@@H](OC(=O)NCCCCc2cccnc2)[C@H](C)[C@@H](O[C@@H]2O[C@H](C)C[C@H](N(C)C)[C@H]2O)[C@](C)(OC)C[C@@H](C)/C(=N\OC)[C@H](C)[C@H]2OC(=O)O[C@@]21C` ), measured MBC is 8

###

Test Protocol: MRT in Sprague-Dawley rat at 20 mg/kg, po administered as single dose measured for 0.25 to 24 hrs by LC-MS/MS analysis
Type: ADME, organism-based
Experimental Parameters: in vivo
Value Type: MRT (h)
Write down the numeric answer in h and omit the unit.

For this compound ( `CC[C@H]1OC(=O)[C@H](C)[C@@H](OC(=O)NCCCc2cccnc2)[C@H](C)[C@@H](O[C@@H]2O[C@H](C)C[C@H](N(C)C)[C@H]2O)[C@](C)(OC)C[C@@H](C)/C(=N\OC)[C@H](C)[C@H]2OC(=O)O[C@@]21C` ), measured MRT is 4.53

###

Test system: Staphylococcus aureus
Test Protocol: Antimicrobial activity against inducibly erythromycin resistant Staphylococcus aureus PU64 expressing i-ermA incubated in CAMHB medium for 20 hrs by two-fold microbroth dilution method
Format: functional
Experimental Parameters: PU64, 20 h
Value Type: MIC (µg/mL)
Write down the numeric answer in µg/mL and omit the unit.

Param item: `C=CCO/N=C1\[C@H](C)C[C@@](C)(OC)[C@H](O[C@@H]2O[C@H](C)C[C@H](N(C)C)[C@H]2O)[C@@H](C)[C@H](OCC#Cc2ccnc(N)c2)[C@@H](C)C(=O)O[C@H](CC)[C@@]2(C)OC(=O)O[C@@H]2[C@H]1C` ; param system: Staphylococcus aureus; output MIC: 256

###

Below is a list of entries, each paired with its recorded MIC value.
Tested on: Streptococcus pyogenes
Test Protocol: Antimicrobial activity against inducibly erythromycin resistant Streptococcus pyogenes 01-968 expressing i-ermA incubated in CAMHB medium for 20 to 24 hrs by two-fold microbroth dilution method
Assay type: functional
Write down the numeric answer in µg/mL and omit the unit.

{"columns": ["Smiles Structure", "MIC / µg/mL"],
 "data": [
  ["CC[C@H]1OC(=O)[C@H](C)[C@@H](OC(=O)CCNCC#Cc2cccnc2)[C@H](C)[C@@H](O[C@@H]2O[C@H](C)C[C@H](N(C)C)[C@H]2O)[C@](C)(OC)C[C@@H](C)/C(=N\\OC)[C@H](C)[C@H]2OC(=O)O[C@@]21C", 8]
]}

# evaluate next
For this compound ( `CC[C@H]1OC(=O)[C@H](C)[C@@H](OC(=O)CCNC/C=C/c2cccnc2)[C@H](C)[C@@H](O[C@@H]2O[C@H](C)C[C@H](N(C)C)[C@H]2O)[C@](C)(OC)C[C@@H](C)/C(=N\OC)[C@H](C)[C@H]2OC(=O)O[C@@]21C` ), measured MIC is 8

###

Below is a list of entries, each paired with its recorded MBC value.
Tested on: Haemophilus influenzae
Test Protocol: Bactericidal activity against azithromycin-susceptible Haemophilus influenzae ATCC 49247 assessed as reduction in colony formation incubated in HTM broth medium for 20 to 24 hrs followed by 24 hrs subculturing in the medium without test compound
Assay type: functional
Write down the numeric answer in µg/mL and omit the unit.

Here is how some molecules turned out for MBC.
{"columns": ["Molecule", "MBC [µg/mL]"],
 "data": [
  ["CC[C@H]1OC(=O)[C@H](C)[C@@H](O[C@H]2C[C@@](C)(OC)[C@@H](O)[C@H](C)O2)[C@H](C)[C@@H](O[C@@H]2O[C@H](C)C[C@H](N(C)C)[C@H]2O)[C@](C)(OC)C[C@@H](C)C(=O)[C@H](C)[C@@H](O)[C@]1(C)O [CLARITHROMYCIN]", 8],
  ["CC[C@H]1OC(=O)[C@H](C)[C@@H](OC(=O)CCNCCCCc2cccnc2)[C@H](C)[C@@H](O[C@@H]2O[C@H](C)C[C@H](N(C)C)[C@H]2O)[C@](C)(OC)C[C@@H](C)/C(=N\\OC)[C@H](C)[C@H]2OC(=O)O[C@@]21C", 256],
  ["CC[C@H]1OC(=O)[C@H](C)[C@@H](OC(=O)CCNCCCc2ccc3c(c2)c(=O)c(C(=O)O)cn3C2CC2)[C@H](C)[C@@H](O[C@@H]2O[C@H](C)C[C@H](N(C)C)[C@H]2O)[C@](C)(OC)C[C@@H](C)/C(=N\\OC)[C@H](C)[C@H]2OC(=O)O[C@@]21C", 256],
  ["CC[C@H]1OC(=O)[C@H](C)[C@@H](OC(=O)CCNCCNc2cc3c(=O)c(C(=O)O)cn(C4CC4)c3cc2Cl)[C@H](C)[C@@H](O[C@@H]2O[C@H](C)C[C@H](N(C)C)[C@H]2O)[C@](C)(OC)C[C@@H](C)/C(=N\\OC)[C@H](C)[C@H]2OC(=O)O[C@@]21C", 128],
  ["CC[C@H]1OC(=O)[C@H](C)[C@@H](OC(=O)NCCCc2cncc(N)c2)[C@H](C)[C@@H](O[C@@H]2O[C@H](C)C[C@H](N(C)C)[C@H]2O)[C@](C)(OC)C[C@@H](C)/C(=N\\OC)[C@H](C)[C@H]2OC(=O)O[C@@]21C", 256],
  ["CC[C@H]1OC(=O)[C@H](C)[C@@H](OC(=O)CCNCCCc2cccnc2)[C@H](C)[C@@H](O[C@@H]2O[C@H](C)C[C@H](N(C)C)[C@H]2O)[C@](C)(OC)C[C@@H](C)/C(=N\\OC)[C@H](C)[C@H]2OC(=O)O[C@@]21C", 256]
]}

For this molecule ( `CC[C@H]1OC(=O)[C@H](C)[C@@H](OC(=O)NCCCc2cccnc2)[C@H](C)[C@@H](O[C@@H]2O[C@H](C)C[C@H](N(C)C)[C@H]2O)[C@](C)(OC)C[C@@H](C)/C(=N\OC)[C@H](C)[C@H]2OC(=O)O[C@@]21C` ), measured MBC is 128

For this molecule ( `CC[C@H]1OC(=O)[C@H](C)[C@@H](OC(=O)NCCCCc2cccnc2)[C@H](C)[C@@H](O[C@@H]2O[C@H](C)C[C@H](N(C)C)[C@H]2O)[C@](C)(OC)C[C@@H](C)/C(=N\OC)[C@H](C)[C@H]2OC(=O)O[C@@]21C` ), measured MBC is 256
